system: K562; assay: NCI tumour cell line growth inhibition, 48 h
The source made the active and inactive calls. No stated cut-off is given here; in the data, active = GI50 up to about 1.1 µM and inactive = higher.
// values below are reported GI50

Worked cases, answers included:
molecule	measurement-target	GI50
COc1ccc2nccc(C3OC(=O)N4CCC(=O)CC34)c2c1 (stereo unspecified)	K562	> 100 µM (inactive)
CCCCOc1ccc(S(=O)(=O)N/C(N)=N/c2ccc(Cl)cc2)cc1	K562	15 µM (inactive)
c1ccc2c(c1)ccn1ccc3c4ccccc4nc-3c21	K562	0.194 µM (active)
CCOC(=O)C1=NC(c2ccccc2)(c2ccccc2)OC1=C(Cl)Cl	K562	32 µM (inactive)
CC(=O)N1CCc2c([nH]c3ccc(Br)cc23)C1c1ccccc1 (stereo unspecified)	K562	0.752 µM (active)
CCCC(=O)Nc1cc(/C=C/C(=O)N2CC(CCl)c3c2cc(OC(C)=O)c2[nH]cc(C)c32)n(C)c1 (stereo unspecified)	K562	3.06e-05 µM (active)

Query :: Give measured GI50 for `CCOC(=O)c1nc2ccccc2nc1Oc1cc(OC)cc(OC)c1` (K562).
Result :: > 100 µM (inactive)

====

test system: HOP-92; test: NCI tumour cell line growth inhibition, 48 h
Calls of active or inactive are those of the source. Rule as the data show it: active = GI50 up to about 1.1 µM and inactive = higher.
reported-endpoint: GI50

Worked cases, answers included:
molecule	result
Cn1c2c(c3ccccc31)CCN(CCCCN1CCc3c(n(C)c4ccccc34)C1=O)C2	> 100 µM (inactive)
CN(C)Cc1cc(C(=O)/C=C/c2ccc(/C=C/C(=O)c3cc(CN(C)C)c(O)c(CN(C)C)c3)cc2)cc(CN(C)C)c1O	24.2 µM (inactive)
CC12CC(Sc3ccccc3N1)c1ccccc1O2 (centres undefined)	18.7 µM (inactive)
COc1ccccc1C1(C)SCc2nc3ccccc3n21 (centres undefined)	> 10 µM (inactive)

Query :: For the molecule `COc1c2c(cc3nc4ccccc4nc13)CC[C@H](NC(C)=O)c1cc(=O)c(SC)ccc1-2` , report GI50.
Result :: 5.75 µM (inactive)

Query :: For the molecule `COc1ccc2c(c1O)-c1cc(O)cc3c1[C@@H](C2)N(C)CC3` , report GI50.
Result :: 19 µM (inactive)

Query :: For the molecule `COc1cc(Nc2c(C#N)[n+]([O-])c3ccccc3[n+]2[O-])cc(OC)c1OC` , report GI50.
Result :: 28.1 µM (inactive)

Query :: For the molecule `O=C(/C=C1\N=C(c2ccccc2)N(c2ccc3c(c2)Sc2cc(N4C(=O)/C(=C/C(=O)/C=C/c5ccccc5)N=C4c4ccccc4)ccc2N3)C1=O)/C=C/c1ccccc1` , report GI50.
Result :: 67.5 µM (inactive)

Query :: For the molecule `CCCCCCc1cc2cc(-c3cn4ccccc4n3)c(=O)oc2cc1O` , report GI50.
Result :: 15.5 µM (inactive)

Query :: For the molecule `CN(CCCCN1CCCC1)CCCN(C)C(=O)Cc1ccc(Cl)c(Cl)c1` , report GI50.
Result :: 4.57 µM (inactive)

====

system: HOP-62; assay: NCI tumour cell line growth inhibition, 48 h
Activity calls are given as the source filed them. Cut-off read from the data, not from the text of the source: active = GI50 up to about 1.1 µM and inactive = higher.
Would you mind answering with one of these outcomes? true for active, false for inactive

compound	class
O=C(NC(=O)c1cn(CCN(CCO)C(=O)NCCCCCCNC(=O)N(CCO)CCn2cc(C(=O)NC(=O)OCc3ccccc3)c(=O)[nH]c2=O)c(=O)[nH]c1=O)OCc1ccccc1	false

Query :: Lab log entry: N#CCc1ccc(C(C#N)/C(CCCC(=O)Nc2cccc([N+](=O)[O-])c2)=N/NC(N)=S)cc1 (stereo not given) — outcome as called in the assay?
Result :: false

Query :: Lab log entry: O=C(CC(=O)N(C(=O)/C=C\c1ccccc1)c1ccc(Cl)cc1)N1N=C(c2ccccc2)C(/N=N/c2cccc([N+](=O)[O-])c2)C1=O (stereo not given) — outcome as called in the assay?
Result :: false

Query :: Lab log entry: CC(SCc1ccccc1)C(=O)O (stereo not given) — outcome as called in the assay?
Result :: false

Query :: Lab log entry: `c1ccc2c(c1)ccn1ccc3c4ccccc4nc-3c21` — outcome as called in the assay?
Result :: true

====

tested on: EKVX; assay: NCI tumour cell line growth inhibition, 48 h
Activity calls are given as the source filed them. Rule as the data show it: active = GI50 up to about 1.1 µM and inactive = higher.
reported-endpoint: GI50

Worked cases, answers included:
compound	measurement-target	GI50
N/N=C1\C(OC(=O)Nc2cccc(Cl)c2)=Nc2ccccc21	EKVX	4.05 µM (inactive)
CNC(=O)N1N[C@H](c2ccccc2)[C@@H]1c1ccccc1.OB(O)O	EKVX	22.2 µM (inactive)
CCCSC1=N/C(=C\c2ccco2)C(=O)N1	EKVX	67.3 µM (inactive)
COc1cc(/C=C2/Oc3c(OC)cccc3C2=O)ccc1O	EKVX	46.9 µM (inactive)
O=C(C(=O)c1ccc(Cc2ccc(C(=O)C(=O)c3ccccc3)cc2)cc1)c1ccccc1	EKVX	> 100 µM (inactive)
CC(=O)Nc1cc2c(s1)CCC1CC(=O)NN=C21 (stereo unspecified)	EKVX	> 100 µM (inactive)

Query :: For the compound `COc1ccc2c(c1)C=C(C(C)(C)C)NS2(=O)=O` , report GI50.
Result :: > 100 µM (inactive)

Query :: For the compound `CS/C(=N/C#N)NCCc1c[nH]c2ccccc12` , report GI50.
Result :: 18 µM (inactive)

Query :: For the compound `CCOC1=NC(C(F)(F)F)(C(F)(F)F)N=C(N2CCCCC2)O1` , report GI50.
Result :: > 100 µM (inactive)

Query :: For the compound O=C1C(=Cc2ccco2)C(=O)C2CCCCC12 (stereo unspecified) , report GI50.
Result :: > 100 µM (inactive)

Query :: For the compound CC1(C)C2CCC1(C)C(OC(=O)/C=C/C(=O)OC1CC3CCC1(C)C3(C)C)C2 (stereo unspecified) , report GI50.
Result :: > 100 µM (inactive)

====

system: UACC-62; assay: NCI tumour cell line growth inhibition, 48 h
Activity calls are given as the source filed them. No stated cut-off is given here; in the data, active = GI50 up to about 1.1 µM and inactive = higher.
Would you mind answering with one of these outcomes? active, inactive

molecule	class
COC(=O)/C=c1/c2ccccc2n2nc3ccccc3c12	inactive
CC(C)(C)OC(=O)NCCCNC1(c2cc3ccccc3s2)CCCCC1	inactive
CCOC(=O)Nc1nc2cc(Cn3cccc3)ccc2[nH]1	active
CC12CC(Sc3ccccc3N1)c1ccccc1O2 (configuration not stated)	inactive
O=C([O-])C(O)C(O)C(=O)O.[K+] (configuration not stated) [POTASSIUM HYDROGENTARTRATE]	inactive

Query :: Lab log entry: `CCCCCCCCCc1cc(=O)c2c(O)cccc2o1` — outcome as called in the assay?
Result :: inactive

Query :: Lab log entry: N=C(CSS(=O)(=O)O)NC1CC2CCC1C2 (configuration not stated) — outcome as called in the assay?
Result :: inactive

Query :: Lab log entry: `c1ccc(/C(=N\Nc2nc3ccccc3s2)c2ccccn2)cc1` — outcome as called in the assay?
Result :: inactive

Query :: Lab log entry: CC1(C)OCC(C2OC(On3nnc4ccc(Cl)cc43)C3OC(C)(C)OC23)O1 (configuration not stated) — outcome as called in the assay?
Result :: inactive

Query :: Lab log entry: `CC(C)(C)C(=O)CC(=O)C(F)(F)C(F)(F)C(F)(F)F` — outcome as called in the assay?
Result :: inactive

Query :: Lab log entry: CC1(C)OP(=O)(c2ccccc2)C=C1Sc1ccc([N+](=O)[O-])cc1[N+](=O)[O-] (configuration not stated) — outcome as called in the assay?
Result :: inactive

====

system: U-251; experiment: NCI tumour cell line growth inhibition, 48 h
The source made the active and inactive calls. Cut-off read from the data, not from the text of the source: active = GI50 up to about 1.1 µM and inactive = higher.
Would you mind answering with one of these outcomes? active, inactive

Consider the worked cases shown below.
compound	class
CN1CCN(Cc2cc3c(nn2)-c2ccccc2C3=O)CC1	inactive
Cc1cc(-c2[nH]c(C(=O)O)cc2I)on1	inactive
CCN1CSC(=S)N(CC)C1	inactive
CN(C)CC/C(=N\Nc1ccc(Cl)cc1)c1ccccc1	active
[O-]c1c2cc(-[n+]3c(-c4ccccc4)cc(-c4ccccc4)cc3-c3ccccc3)cc1CO[C@@H](c1ccccc1)[C@H](c1ccccc1)OCc1cccc(n1)CO[C@@H](c1ccccc1)[C@H](c1ccccc1)OC2	active

Query :: Lab log entry: CC1(C)C2CCC1(C)C(OC(=O)/C=C/C(=O)OC1CC3CCC1(C)C3(C)C)C2 (stereo not given) — outcome as called in the assay?
Result :: inactive

====

test system: SW-620; assay: NCI tumour cell line growth inhibition, 48 h
Structures can show the parent of a compound that is named as a salt. The source made the active and inactive calls. Cut-off read from the data, not from the text of the source: active = GI50 up to about 1.1 µM and inactive = higher.
reported-endpoint: GI50

molecule	GI50
COc1ccc(/C=C2\OC(=O)C(Cl)=C2c2ccc(OC)cc2)cc1	> 100 µM (inactive)
CC(=O)N(CN1C(=O)CCC1C(=O)O)c1cccc(O)c1 (centres undefined)	> 100 µM (inactive)
Cc1nc(Nc2ccccc2)sc1C(=O)NNc1ccc([N+](=O)[O-])cc1[N+](=O)[O-]	39.9 µM (inactive)
CC[C@@H]1C(=O)OC[C@@H]1Cc1cncn1C [PILOCARPINE HYDROCHLORIDE]	> 100 µM (inactive)
O=C(c1ccccc1)c1ccc2n[se]nc2c1	10.3 µM (inactive)
CN(C)CC/C(=N\Nc1ccc(Cl)cc1)c1ccccc1	0.431 µM (active)
CCCC(=O)OC1C(C(O)CO)OC2OC(C)(C)OC21 (centres undefined)	> 100 µM (inactive)
COc1ccc(-n2cnc3c(N)nc(N)nc32)cc1	> 100 µM (inactive)

Query :: Give measured GI50 for `COC(NC(=O)Nc1ccc(C)cc1)(C(F)(F)F)C(F)(F)F` (SW-620).
Result :: 20.4 µM (inactive)
